# maps each entry to its melting point

Known results for molecules:
molecule: NS(=O)(=O)Oc1ccc(C(c2ccc(OS(N)(=O)=O)c(Br)c2)n2cncn2)cc1Br
melting point: 98 to 102 °C
--
molecule: c1ccc(-c2csc(-c3cccs3)n2)cc1
melting point: 51 to 53 °C
--
molecule: N#CC1=C(C2CCC2)Nc2n[nH]cc2C1c1cccc(C#N)c1Br (stereo unspecified)
melting point: 278 °C
--
molecule: CCOC(=O)CC(=O)Nc1ccc(F)cc1
melting point: 68 to 71 °C
--
molecule: N#Cc1cccc(C(=O)Nc2ccc(-n3nc(C(F)(F)F)cc3C(F)(F)F)nc2)c1
melting point: 206 to 208 °C

Recorded melting point of CCCCCCCCCCCCCCCCCCOc1ccc(C(=O)C(=O)N(CC(=O)OCC)CC(=O)OCC)cc1 , please.
63 to 64 °C

Recorded melting point of COC(=O)c1ccccc1S(=O)(=O)NC(=O)Nc1nnc(SC)n(C)c1=O , please.
186 to 187 °C

Recorded melting point of Cc1cc(Br)c([N+](=O)[O-])c(Br)n1 , please.
118 to 120 °C

Recorded melting point of CC(C)(C)C(NC(=O)c1ccc(I)cc1)NS(=O)(=O)Nc1cccnc1 (stereo unspecified) , please.
177 to 178 °C

Recorded melting point of CCC1c2nc[nH]c2CCN1C(=S)NC (stereo unspecified) , please.
230 °C

###

experimental-readout: melting point

Known results for molecules:
molecule: Cc1nc(-n2cnn(CCCC(F)(F)F)c2=O)sc1C(=O)NCc1cccnc1
experimental-readout: melting point
endpoint-result: 184 to 185 °C
//
molecule: COc1cc2c(c(Cl)c1Cl)C(=O)C(CCCl)C2 (stereo not given)
experimental-readout: melting point
endpoint-result: 103 to 105 °C
//
molecule: COc1cc2ccnc(N3CCN(C(=O)Nc4ccc([N+](=O)[O-])cc4)CC3)c2cc1OC
experimental-readout: melting point
endpoint-result: 247 to 248 °C
//
molecule: O=S(=O)(c1ccc(Oc2ccc(Cl)c(Cl)c2)cc1)C(F)(F)F
experimental-readout: melting point
endpoint-result: 77 to 78 °C

Could you now look at the following molecule, please?
Recorded melting point of CCOC(=O)C(=O)Nc1cc(OC)c(OC)cc1[N+](=O)[O-] , please.
163 °C

###

experimental-readout: melting point

Known results for compounds:
compound: CC(=NNC(=N)N)c1cccc(OCc2ccc3ccccc3c2)c1
experimental-readout: melting point
endpoint-result: 176 to 178 °C

compound: Cc1cc(C)n2nc(S(=O)(=O)Nc3ccccc3Cl)nc2n1
experimental-readout: melting point
endpoint-result: 188 to 190 °C

compound: COc1cccc(CC(=O)O)c1OCCCc1ccc(OC(C)C)cc1Oc1ncc(Cl)cc1Cl
experimental-readout: melting point
endpoint-result: 92 to 93 °C

compound: CCN(CC)CC1CCCCN1CC(=O)N1c2ccccc2NC(=O)c2c1c(C)cn2C (stereo not given)
experimental-readout: melting point
endpoint-result: 176 to 178 °C

Recorded melting point of O=C1CC(C(=O)O)(c2ccccc2)C1 , please.
133 to 135 °C

###

# maps each entry to its melting point

Known results for molecules:
molecule: COc1ccc2ncc(Cl)c(OC[C@@H]3CC[C@@H](NC(=O)OC(C)(C)C)CO3)c2c1
melting point: 173 °C

molecule: CCN(CC)c1nc(CO)cs1
melting point: 67 to 69 °C

molecule: CC(C)c1ccc2c(c1)c(Sc1ccccc1)c(CC(C)(C)C(=O)O)n2Cc1ccc(Cl)cc1
melting point: 162 to 165 °C

molecule: BrCc1cc2ccsc2c2ccccc12
melting point: 99 to 101 °C

molecule: CCOCc1cc2c(N=C=S)cccc2cn1
melting point: 66 °C

molecule: CCOC(=O)c1cnn(C)c1O
melting point: 134 to 135 °C

Recorded melting point of CC(C)(C)c1cc(-c2ccc(NC(=O)[C@H]3CCCC[C@H]3C(=O)O)cc2)cc(C(C)(C)C)c1O (relative stereo) , please.
217 to 220 °C

Recorded melting point of O=CNNC(=O)N1Cc2ccccc2Oc2ccc(Cl)cc21 , please.
177 to 181 °C

Recorded melting point of CC(C)COC(=O)N[C@@H](CC(C)C)C(=O)N[C@@H](Cc1ccccc1)C(=O)CSCc1ccco1 , please.
89 to 90 °C

Recorded melting point of O=C(O)CCCCCCc1cncc2ccccc12 , please.
108 to 109 °C

###

# maps each entry to its melting point

molecule: CCN(Cc1cc(Cl)ccc1OCC1CC1)c1ccc(C(N)=O)nn1
endpoint-result: 177 to 178 °C

Recorded melting point of CN1CCc2cc(O)c(O)c(Sc3cccs3)c2CC1 , please.
189 to 191 °C

Recorded melting point of Cc1ccc(S(=O)(=O)OCC2Cc3cc(Cl)c4c(c3O2)CCC4)cc1 (stereo unspecified) , please.
82 to 84 °C

###

experimental-readout: melting point

compound: CCc1[nH]n(-c2c(Cl)cc(Cl)cc2Cl)c2nc(Cc3ccc(-c4ccc(OC)cc4)cc3)nc(=O)c1-2
melting point: 275 to 277 °C
--
compound: O=C(Nc1c(Cl)cccc1Cl)C1c2ccccc2COc2ccc(Br)cc21 (centres undefined)
melting point: 185 to 187 °C
--
compound: CCCc1nc(C=O)c(C(=O)OCC)n1Cc1ccc(-c2ccccc2C(=O)OC(C)(C)C)cc1
melting point: 117 to 119 °C
--
compound: C[C@@H]1CC(=O)CC(C)(C)C1=O
melting point: 91 to 92 °C
--
compound: C=CC(=O)NCc1cc(C)c(OCC2CO2)c(C)c1 (centres undefined)
melting point: 90 to 92 °C

Could you now look at the following compound, please?
Recorded melting point of CCCOC(=O)C1=C(C)NC(CO)=C(C(=O)OC)C1c1ccccc1C#N (centres undefined) , please.
149 to 152 °C

###

experimental-readout: melting point

Known results for compounds:
compound: CC(C)(C)OC(=O)Nc1cccc(C2CCN(c3nc4c(cc3F)c(=O)c(C(=O)O)cn4C3CC3)C2)c1 (stereo not given)
melting point: 210 to 211 °C
--
compound: O=C1CCSc2cc(F)ccc21
melting point: 61 to 66 °C
--
compound: CCCCCCCCCCCC(=O)c1ccc(/C=C/C(=O)OCC)o1
melting point: 50 to 51 °C
--
compound: COc1cnc(CSc2nc3cc4c(cc3[nH]2)OCO4)cc1OC
melting point: 198 to 200 °C

Could you now look at the following compound, please?
Recorded melting point of CCCCN1CC2CN(c3ccc([N+](=O)[O-])cc3[N+](=O)[O-])CC(C1)C2(C)C , please.
119 °C

###

experimental-readout: melting point

Known results for molecules:
molecule: Cc1ccc2c(n1)CCCC2(O)c1ccccc1 (stereo unspecified)
melting point: 130 to 134 °C
--
molecule: CC(C)n1nc(-c2cc(-n3cccc3)cnc2-c2ccccc2)ccc1=O
melting point: 189 to 190 °C
--
molecule: COc1ccc2c(c1)C(C#N)c1ccccc1CO2 (stereo unspecified)
melting point: 120 to 122 °C

Recorded melting point of COC(=O)C1CCc2cc(OCc3ccccc3)c(OCc3ccccc3)cc2C1O (stereo unspecified) , please.
121 to 124 °C

Recorded melting point of COc1ccc(C(=O)Nc2ccc(F)cc2)cc1Nc1cc(C)cc(C)c1 , please.
199 to 200 °C

Recorded melting point of CCCc1nnc2c(Cl)nc3ccccc3n12 , please.
173 to 175 °C

Recorded melting point of CN1CCN(Cc2cnc(S)n2Cc2cc(F)cc(F)c2)CC1 , please.
200 to 201 °C

###

experimental-readout: melting point

Known results for compounds:
compound: COc1ccnc(CCc2nc3cc(-c4ccc(N)cc4)cnc3[nH]2)c1
endpoint-result: 117 to 119 °C
//
compound: Cc1ccc(-n2cnnc2C(F)(F)F)c(C)c1
endpoint-result: 77 °C
//
compound: CCOCn1c(-c2cc(F)cc(F)c2)c(C#N)c(Br)c1C(F)(F)F
endpoint-result: 74 to 75 °C

Recorded melting point of COc1cccc([C@H]2O[C@H](CC(=O)NS(=O)(=O)CCCO)C(=O)N(CC(C)(C)CO)c3ccc(Cl)cc32)c1OC , please.
133 to 135 °C

Recorded melting point of CCCC1(CCC(C)=O)Cc2cc(CC(=O)O)c(Cl)c(Cl)c2C1=O (stereo not given) , please.
137 to 139 °C

Recorded melting point of COC(=O)c1cc(C(=O)CBr)cs1 , please.
112 to 114 °C

Recorded melting point of CN(C)C(=O)N1CCC(C(=O)N(CCCN2CCC(Cc3ccccc3)CC2)c2ccc(Cl)c(Cl)c2)CC1 , please.
109 to 112 °C

Recorded melting point of C=CC(C)=CC(=CC)NCc1ccc2nc(NC3CCN(C)CC3)n(Cc3nc(C)ccc3O)c2c1 , please.
141 °C

Recorded melting point of CC(C)C(N=C(NN)NN)C(=O)O (stereo not given) , please.
112 to 116 °C

Recorded melting point of COP(=O)(OC)C(O)=Cc1ccccc1F , please.
71 to 73 °C
